Experimental System: T1, PSMA Fab (biotinylated (site not stated))
T1 construct: Biotinylated PSMA Fab captured on neutravidin plates in the phage ELISA; also called Anti-PSMA Fab; 006 PSMA Fab
Assay Summary: clonal phage ELISA; biotinylated PSMA Fab on neutravidin plate pre-incubated with PSMA antigen as competitor; anti-M13 HRP detection;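 note: crude clonal phage supernatants briefly incubated on wells preloaded with PSMA antigen in blocking buffer, or buffer only as control, bound phage detected with HRP-conjugated anti-M13 antibody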
Where no end group is shown, it is not given here.
# if value of Phage binding ELISA signal, Anti-PSMA Fab in presence of PSMA reaches 0.07, tag t; if it stays below, tag f

• MPKWCTPSWMCSPS [Phage-2436] = f

Tell me whether Phage binding ELISA signal, Anti-PSMA Fab in presence of PSMA is at least 0.07 here: EAKWCIPNWMCEMA [Phage-2438]
f

Tell me whether Phage binding ELISA signal, Anti-PSMA Fab in presence of PSMA is at least 0.07 here: YEKWCTPTWMCSWL [Phage-2446]
t

Tell me whether Phage binding ELISA signal, Anti-PSMA Fab in presence of PSMA is at least 0.07 here: EVKWCIPAWMCVED [Phage-2444]
t

Tell me whether Phage binding ELISA signal, Anti-PSMA Fab in presence of PSMA is at least 0.07 here: GAIWCIPQWMCAWN (cysteine pairing not given here; also: displayed as fusion to phage pIII) [Phage-2443]
t

Tell me whether Phage binding ELISA signal, Anti-PSMA Fab in presence of PSMA is at least 0.07 here: MPKWCTPSWMCAVQ (cysteine pairing not given here; also: displayed as fusion to phage pIII) [Phage-2439]
t

Tell me whether Phage binding ELISA signal, Anti-PSMA Fab in presence of PSMA is at least 0.07 here: VVKWCTPPWMCSVW [Phage-2450]
t

Tell me whether Phage binding ELISA signal, Anti-PSMA Fab in presence of PSMA is at least 0.07 here: LERWCIPSWMCTED [Phage-2445]
f

Tell me whether Phage binding ELISA signal, Anti-PSMA Fab in presence of PSMA is at least 0.07 here: PAKWCVPSWMCSEI [Phage-2440]
f

Tell me whether Phage binding ELISA signal, Anti-PSMA Fab in presence of PSMA is at least 0.07 here: EMNWCIPAWMCEGR [Phage-2437]
f

Tell me whether Phage binding ELISA signal, Anti-PSMA Fab in presence of PSMA is at least 0.07 here: IEKWCTPPWMCLDH [Phage-2447]
f

Tell me whether Phage binding ELISA signal, Anti-PSMA Fab in presence of PSMA is at least 0.07 here: VVHWCTPAWMCYDM [Phage-2441]
f

Origin of the recorded values: patent US20260242478A1
